Kindly supply the reported melting point values for the records listed here.
Numbers only, in °C.

CCC(O)C1CCCCN1 (stereo unspecified) :: 121
O=c1[nH]c2ccccc2n1C1CCN(CCCC(c2ccc(F)cc2)c2ccc(F)cc2)CC1 :: 216

Now for the compound whose melting point we want.
Query block: Record request: melting point value, item COc1cccc(C2(O)CCCCC2CN(C)C)c1 (stereo unspecified)
Result block: 180

----------
Threshold 90 °C: melting point strictly smaller gives Fulfilled, otherwise Not fulfilled.

O=C(O)C=Cc1cccc(C(F)(F)F)c1 :: Not fulfilled
CCOc1cc(C(=S)N2CCCCC2)ccc1O :: Not fulfilled
COP(=O)(OC)OC(=CCl)c1ccc(Cl)cc1Cl :: Fulfilled

Would you kindly look at the next entry?
Query block: Consider the molecule c1ccc(-c2ccc(-c3nnc(-c4ccc(-c5ccccc5)cc4)o3)cc2)cc1 . Is its melting point strictly less than 90 °C?
Result block: Not fulfilled

----------
Can you tell me melting point for the items I'm about to list?
Numbers only, in °C.

N#CC1=Cc2ccccc2C1 :: 40

State the recorded melting point for every item in the following list.
1. Nc1ccc(Nc2ccccc2)c2c1C(=O)c1ccccc1C2=O
2. C(=NC(N=Cc1ccco1)c1ccco1)c1ccco1 (stereo not given)
3. OC[C@H]1OC(Nc2ccccc2)C[C@@H]1O (stereo not given in full)
4. C/C(=N\NC(N)=O)C(=O)C(C)Cc1ccccc1 (stereo not given)
5. C#CC(C)N(C(=O)CCl)c1ccccc1 (stereo not given)
6. CCCCCCCCCCCCCCCCCC1CCCCC1
7. CC1(C)OC(=O)C(=NNc2ccc(C(=O)O)cc2)C(=O)O1
8. CCCCCCl

Result block:
[192, 117, 151, 112, 43.5, 38, 223, -60]

Provide melting point for all items below, preserving their order.
1. CC12CCC(=O)C3OC31CC(C1(O)CCC3(C)C(=O)CCC34OC14)C2=O (stereo not given)
2. CC1(C)OCC2OC3(C(=O)O)OC(C)(C)OC3C2O1 (stereo not given)
3. Cc1nn(-c2cc(NS(C)(=O)=O)c(Cl)cc2Cl)c(=O)n1C(F)F
4. COC(=O)c1scc(S(C)(=O)=O)c1N

Result block:
182
92
122
145

----------
Exercise: state measured melting point for each of the compounds provided.
Answers are plain numbers, in °C.

# count of solved cases: 4
COc1ccc(C(=O)c2ccc(OC)c(OC)c2)cc1 :: 79
CC(C)c1cccc(O)c1 :: 26
N#Cc1scc2c1OCCO2 :: 70
NC(=O)C(F)(F)Cl :: 82

Your task in this section: give melting point for each listed record.
1. CC(=O)/C(=C/Nc1ccccc1)Cc1ccccc1
2. COP(=S)(OC)Oc1ccc([N+](=O)[O-])c(Cl)c1
3. O=C(O)CSCC(=O)O
4. OCC1CCCN2CCCCC12 (stereo not drawn)
5. Nc1ccc(/C=C\c2ccc(N)cc2)cc1
6. CN1CCC23c4c5ccc(OCCN6CCOCC6)c4OC2C(O)C=CC3C1C5 (stereo not drawn)

Result block:
1: 132; 2: 21; 3: 129; 4: 70; 5: 121; 6: 91

----------
measured-property: melting point

CCCCCCCOC(=O)c1ccc(O)cc1 :: 48 °C
CC1=NNC(=N)Nc2c1c(=O)n(-c1ccccc1)c1ccccc21 :: 227 °C
CC(=NO)C(C)(C)O :: 85 °C

Hey, quick one: what's melting point for each of these?
1. O=C=NC12CC3CC(CC(C3)C1)C2
2. CCOC(=O)C=CC(=O)O
3. N[C@@H]1CCCC[C@H]1N
4. O=C(Cl)CCl
5. CSc1ccc(C(F)(F)F)cc1[N+](=O)[O-]
6. Cc1ccc(N)cc1[N+](=O)[O-]

Result block:
["144 to 146 °C", "70 °C", "40 to 45 °C", "-22 °C", "94 to 96 °C", "76.5 °C"]

Please supply melting point for each of the following items, keeping them in order.
1. CC(CC(C)(C)C)CC(C)(C)C
2. COc1ccc(-c2csc(/C(C#N)=C\c3cccnc3)n2)cc1
3. COc1ccccc1C1Nn2c(nnc2-c2cccnc2)S1 (centres undefined)

Result block:
1: -67 °C; 2: 235 °C; 3: 221 °C

Batch lookup, melting point per entry.
1. BrC(c1ccccc1)C(Br)c1ccccc1 (centres undefined)
2. CC[C@H](C)[C@H](NC(=O)OC(C)(C)C)C(=O)O

Result block:
1. 239 °C
2. 69 °C
